Molecular target: T1, DR3-8i (human)
T1 construct: also called purified monomeric DR3-8i antigen protein
T1 chain: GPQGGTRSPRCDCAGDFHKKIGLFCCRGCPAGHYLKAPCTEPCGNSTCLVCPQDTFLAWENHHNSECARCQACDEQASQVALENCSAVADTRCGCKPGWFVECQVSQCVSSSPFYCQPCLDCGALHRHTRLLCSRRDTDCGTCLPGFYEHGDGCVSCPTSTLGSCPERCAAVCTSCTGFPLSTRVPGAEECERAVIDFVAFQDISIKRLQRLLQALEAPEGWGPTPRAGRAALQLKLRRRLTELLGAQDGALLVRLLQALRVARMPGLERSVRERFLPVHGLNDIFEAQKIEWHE
Experiment: BLI, IgG captured on protein A, DR3-8i in solution; Average
property: Kd (nM)
Numeric only. Scale: nM

Worked examples follow.
binder="B9-hIgG1 (antibody, V domains shown, chimeric: mouse B9 variable regions, human IgG1; also called B9-H1; Non-humanised B9) VH: EVQLVESGGGLVKPGGSLKLSCSASGFTFSSYAMSWVRQTPEKRLEWVATISDGDSYSYFPDSVKDRFIISRDNAKNNLFLQMSHLRSEDTAMYYCTRDRIYGSVQYYAMDYWGQGTSVTVSS VL: DIVLTQSPASLAVSLGQRATISCRASESVEFSGTSLMQWYQQRPGLPPKLLIYAASNVESGVPARFSGSGSGTDFSLNIHPVEEDDIAMYFCQQSRKLPYTFGGGTKLEIN" measured_result=0.259
binder="VHg6/VLg12 (antibody, human IgG1, V domains shown, human IgG1) VH: QVQLQQSGGGLVQPGGSLRLSCAASGFTFSSYAMSWVRQAPGKGLEWVATISDGDSYSYFPDSVKDRFTISRDNARNSLYLQMNSLRAEDTAVYYCARDRIYGSVQYYAMDYWGRGTLVTVSS VL: EIVLTQSPATLSLSPGERATLSCRASESVEFSGTSLMQWYQQKPGQAPRLLIYAASNVESGIPARFSGSGSGTDFTLTISSLEPEDFAVYYCQQSRKLPYTFGQGTKLEIK" measured_result=0.157

Please examine the following record next.
The binder VHg2/VLg12 (antibody, human IgG1, V domains shown, human IgG1) VH: QMQLVQSGGGLVKPGGSLRLSCAASGFTFSSYAMSWIRQAPGKGLEWVSTISDGDSYSYFPDSVKDRFTISRDNAKNSLYLQMNSLRAEDTAVYYCTRDRIYGSVQYYAMDYWGRGTLVTVSS VL: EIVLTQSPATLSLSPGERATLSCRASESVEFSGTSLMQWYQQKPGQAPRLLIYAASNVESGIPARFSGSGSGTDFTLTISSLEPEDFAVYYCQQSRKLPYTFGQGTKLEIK showed Kd equal to 0.121
